Biological target: T1, 4H2692-bH
T1 chain: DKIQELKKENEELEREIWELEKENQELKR
Assay: two-hybrid library CCNG1;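 also: natural log of median RNA to DNA barcode read ratio; higher means stronger binding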
Endpoint Name: interaction score

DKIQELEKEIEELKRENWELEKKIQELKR [4H2134-bH]: 0.18
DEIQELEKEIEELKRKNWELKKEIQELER [4H121-bH]: 0.482

[a] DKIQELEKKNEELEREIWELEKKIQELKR [4H2438-bH]
[b] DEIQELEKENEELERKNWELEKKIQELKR [4H182-bH]
Exam item: Lower value for measured interaction score? Options: a , b Write down the label attached to your selection.
Marked response: a
